read-out: JUN Transcription Factor, JUN (gene 3725); assay: LTEA_HepaRG_JUN: Life Technologies and Expression Analysis (LTEA) Assay for JUN Transcription Factor using HepaRG (AID 2283513); settings: mRNA level, 48 h; actives raise or lower the signal
Active and inactive are the calls of the source. How the source made its calls: active means hit-call score of the fitted dose curve at least 0.9, where 1 is the maximum; inactive means score below 0.9.
Possible outcomes: active, inactive

# Molecule, Label Value
measured = [
    ("CC(C)(OO)c1ccccc1", "inactive"),
    ("O=[N+]([O-])c1ccc(O)c([N+](=O)[O-])c1", "inactive"),
    ("O=C(O)C(Cl)(Cl)Cl", "inactive"),
    ("CCCCCCCCc1ccc(O)cc1", "inactive"),
    ("O=C1C2(Cl)C3(Cl)C4(Cl)C(Cl)(Cl)C5(Cl)C3(Cl)C1(Cl)C5(Cl)C24Cl (configuration not stated)", "active"),
    ("NC(=O)O", "inactive"),
    ("Cc1ccccc1N", "inactive"),
    ("O=C(Nc1ccc2[nH]ccc2c1)c1cc2cc(F)ccc2n1Cc1cccc(F)c1", "active"),
    ("C=C(C)C(=O)[O][Sn]([CH2]CCC)([CH2]CCC)[CH2]CCC", "active"),
    ("CC12CC1(C)C(=O)N(c1cc(Cl)cc(Cl)c1)C2=O (configuration not stated)", "inactive"),
    ("CCOP(=S)(OCC)SCSP(=S)(OCC)OCC", "inactive"),
    ("O=C(O)C(F)(F)C(F)(F)C(F)(F)C(F)(F)C(F)(F)C(F)(F)C(F)(F)C(F)(F)C(F)(F)C(F)(F)F", "inactive"),
    ("CC(C)(c1ccccc1)c1ccc(O)c(C(C)(C)c2ccccc2)c1", "inactive"),
    ("CC(=O)[O][Hg][c]1ccccc1", "active"),
    ("O=c1[nH]c(=O)[nH]c(=O)[nH]1", "inactive"),
    ("ClC1(Cl)C2(Cl)C3(Cl)C4(Cl)C(Cl)(Cl)C5(Cl)C3(Cl)C1(Cl)C5(Cl)C24Cl (configuration not stated)", "inactive"),
    ("CN(C)N=O", "inactive"),
]

----------
experiment: ATG_CRE_CIS: Attagene CIS-FACTORIAL HepG2 Assay for human cAMP Responsive Element (CRE) binding protein 3 (AID 2282926); conditions: HepG2 CRE cis-reporter, Attagene multiplexed mRNA; actives raise or lower the signal
The source made the active and inactive calls. Rule for the calls: active = hit-call score of the fitted dose curve at least 0.9, where 1 is the maximum; inactive = score below 0.9.
Classes used: active, inactive

# Molecule, Label Value
data = [
    ("BrCCBr", "inactive"),
    ("CC(C)(c1ccccc1)c1ccc(O)c(C(C)(C)c2ccccc2)c1", "active"),
    ("Cc1cc(=O)[nH]o1", "inactive"),
    ("COc1ccc(C=O)cc1OC", "inactive"),
    ("Cc1ccccc1N", "inactive"),
    ("O=C(O)C(F)(F)C(F)(F)C(F)(F)C(F)(F)C(F)(F)C(F)(F)F", "inactive"),
    ("ClC(Cl)=C(Cl)C(Cl)=C(Cl)Cl", "active"),
    ("CC(=[OH+])/C=C(/C)[O-].CC(=[OH+])/C=C(/C)[O-].CC(=[OH+])/C=C(/C)[O-].[Al]", "inactive"),
    ("Clc1nc(Cl)nc(Cl)n1", "inactive"),
    ("CC1(C)Cc2cccc(O)c2O1", "inactive"),
    ("COP(=S)(OC)Oc1c(Cl)cc(C)cc1Cl", "inactive"),
    ("CCOP(=O)(CN(CCO)CCO)OCC", "inactive"),
    ("Cc1ccc(N)cc1Cl", "inactive"),
    ("CCOP(=S)(OCC)Oc1nc(Cl)c(Cl)cc1Cl", "inactive"),
    ("Cc1cc(Cl)ccc1O[C@H](C)C(=O)O", "inactive"),
    ("Oc1c(I)cc(I)cc1I", "inactive"),
    ("Oc1ccc(-c2ccccc2)cc1", "inactive"),
    ("C[C@H]1O[C@@H](O[C@H]2[C@@H](O)C[C@H](O[C@H]3[C@@H](O)C[C@H](O[C@H]4CC[C@@]5(C)[C@H](CC[C@@H]6[C@@H]5CC[C@]5(C)[C@@H](C7=CC(=O)OC7)CC[C@]65O)C4)O[C@@H]3C)O[C@@H]2C)C[C@H](O)[C@@H]1O", "inactive"),
    ("CC(C)OC(=O)Nc1ccccc1", "inactive"),
    ("CNC", "inactive"),
    ("O=C(Nc1ccc2[nH]ccc2c1)c1cc2cc(F)ccc2n1Cc1cccc(F)c1", "inactive"),
    ("COP(=S)(OC)Oc1ccc(S(=O)(=O)N(C)C)cc1", "inactive"),
    ("NC(=S)Nc1ccccc1", "inactive"),
    ("CN(C)N=O", "inactive"),
    ("N#CN=C(N)N", "inactive"),
    ("Clc1ccc(COC(Cn2ccnc2)c2ccc(Cl)cc2Cl)cc1 (configuration not stated)", "inactive"),
    ("O=c1[nH]c(=O)[nH]c(=O)[nH]1", "inactive"),
    ("Cn1sc(Cl)cc1=O", "inactive"),
    ("COP(=O)(OC)OC", "inactive"),
    ("C=C(C)C#N", "inactive"),
    ("CCCCCCCCC(=O)NCc1ccc(O)c(OC)c1", "inactive"),
    ("O=C(OC1CCCCC1)c1ccccc1C(=O)OC1CCCCC1", "inactive"),
    ("ClCc1ccccn1", "active"),
    ("OCc1ccco1", "inactive"),
    ("ClC1=C(Cl)[C@]2(Cl)[C@H]3[C@H]([C@H]4C=C[C@H]3C4)[C@@]1(Cl)C2(Cl)Cl", "inactive"),
    ("CC(=O)OC(c1ccccc1)C(Cl)(Cl)Cl (configuration not stated)", "inactive"),
    ("CCOP(OCC)OCC", "inactive"),
    ("CC(=[OH+])/C=C(/C)[O-].CC(=[OH+])/C=C(/C)[O-].CC(=[OH+])/C=C(/C)[O-].[Fe]", "inactive"),
    ("C1CCC(NC2CCCCC2)CC1", "inactive"),
    ("CCCCCCCCCl", "inactive"),
    ("CC(C)(c1ccc(OCC2CO2)cc1)c1ccc(OCC2CO2)cc1 (configuration not stated)", "active"),
    ("O=C(NCO)NCO", "inactive"),
    ("O=[N+]([O-])c1ccc(O)c([N+](=O)[O-])c1", "inactive"),
    ("N#CCCO", "inactive"),
    ("O=C(O)C(Cl)(Cl)Cl", "inactive"),
    ("O=C(O)C(F)(F)C(F)(F)C(F)(F)C(F)(F)C(F)(F)C(F)(F)C(F)(F)C(F)(F)C(F)(F)C(F)(F)F", "inactive"),
    ("O=C(c1ccccc1)C(Cl)Cl", "inactive"),
    ("CC1(C)CCC(Cc2ccc(Cl)cc2)C1(O)Cn1cncn1 (configuration not stated)", "inactive"),
    ("Cl/C=C\\C[N+]12CN3CN(CN(C3)C1)C2", "inactive"),
    ("O=C1CCCN1", "inactive"),
    ("CCCCC(CC)CO[N+](=O)[O-] (configuration not stated)", "inactive"),
    ("CCCCP(CCCC)CCCC", "inactive"),
    ("OCC(O)CCl (configuration not stated)", "inactive"),
    ("CCC[CH2][Sn]([CH2]CCC)([CH2]CCC)[O]C(=O)c1ccccc1", "inactive"),
    ("O=[N+]([O-])c1c(Cl)c(Cl)cc(Cl)c1Cl", "inactive"),
    ("CNC(=O)O/N=C/C(C)(C)S(C)=O (configuration not stated)", "inactive"),
    ("ClCCBr", "inactive"),
]

----------
target: X-box-binding protein 1 (Homo sapiens); assay: ATG_Xbp1_CIS: Attagene CIS-FACTORIAL HepG2 Assay for human X-box Binding Protein 1 (XBP1) (AID 2282972); settings: HepG2 XBP1 cis-element reporter, Attagene multiplex; actives raise or lower the signal
The source made the active and inactive calls. Rule for the calls: active = hit-call score of the fitted dose curve at least 0.9, where 1 is the maximum; inactive = score below 0.9.
Outcome codes: active, inactive

# Compound, Target Desc, Label Value
rows = [
    ("OCC(O)CCl (configuration not stated)", "X-box-binding protein 1 (Homo sapiens)", "inactive"),
    ("C1CCC(NC2CCCCC2)CC1", "X-box-binding protein 1 (Homo sapiens)", "inactive"),
    ("C(=NC1CCCCC1)=NC1CCCCC1", "X-box-binding protein 1 (Homo sapiens)", "active"),
    ("CC1(C)CCC(Cc2ccc(Cl)cc2)C1(O)Cn1cncn1 (configuration not stated)", "X-box-binding protein 1 (Homo sapiens)", "inactive"),
    ("Oc1ccc(-c2ccccc2)cc1", "X-box-binding protein 1 (Homo sapiens)", "active"),
    ("N#Cc1ccccn1", "X-box-binding protein 1 (Homo sapiens)", "inactive"),
    ("COP(=S)(OC)Oc1ccc(Sc2ccc(OP(=S)(OC)OC)cc2)cc1", "X-box-binding protein 1 (Homo sapiens)", "active"),
    ("CCNc1nc(NC(C)(C)C)nc(SC)n1", "X-box-binding protein 1 (Homo sapiens)", "inactive"),
    ("C[C@H]1O[C@@H](O[C@H]2[C@@H](O)C[C@H](O[C@H]3[C@@H](O)C[C@H](O[C@H]4CC[C@@]5(C)[C@H](CC[C@@H]6[C@@H]5CC[C@]5(C)[C@@H](C7=CC(=O)OC7)CC[C@]65O)C4)O[C@@H]3C)O[C@@H]2C)C[C@H](O)[C@@H]1O", "X-box-binding protein 1 (Homo sapiens)", "active"),
    ("COc1ccc(C=O)cc1", "X-box-binding protein 1 (Homo sapiens)", "inactive"),
    ("C=CCc1ccc(OC)cc1", "X-box-binding protein 1 (Homo sapiens)", "inactive"),
    ("O=C(NCO)NCO", "X-box-binding protein 1 (Homo sapiens)", "inactive"),
]
